Readings of % inhibition 1 µg/ml, N = 2 (HUVEC proliferation on coated DLL4) for the listed binders
# subjectOfTest: DLL4 extracellular domain (R&D systems, catalog #1506-D4/CF) (UniProt Q9NR61 27-529, limits assumed)
# Sequence (Q9NR61 27-529 limits assumed): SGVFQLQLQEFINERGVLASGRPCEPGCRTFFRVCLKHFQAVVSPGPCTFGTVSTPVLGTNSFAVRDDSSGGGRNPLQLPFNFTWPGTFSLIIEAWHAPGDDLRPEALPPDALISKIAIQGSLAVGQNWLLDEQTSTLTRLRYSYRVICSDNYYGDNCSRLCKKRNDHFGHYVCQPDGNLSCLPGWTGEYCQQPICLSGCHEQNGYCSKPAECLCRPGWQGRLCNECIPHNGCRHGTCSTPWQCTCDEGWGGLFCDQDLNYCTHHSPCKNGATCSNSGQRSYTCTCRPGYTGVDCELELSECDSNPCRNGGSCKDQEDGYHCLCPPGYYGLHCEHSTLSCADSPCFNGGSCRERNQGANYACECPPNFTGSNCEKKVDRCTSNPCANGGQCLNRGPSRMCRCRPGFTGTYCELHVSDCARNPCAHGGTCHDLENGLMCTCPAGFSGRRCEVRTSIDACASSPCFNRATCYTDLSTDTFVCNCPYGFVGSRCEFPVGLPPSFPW
# protocolDescription: cell-based or functional assay
Numeric only. Scale: %

4B4 (antibody, IgG4, V domains shown, Fully human; used for IgG4 rows and where no isotype is printed; also called 4B4 IgG4; 4B4.1) VH: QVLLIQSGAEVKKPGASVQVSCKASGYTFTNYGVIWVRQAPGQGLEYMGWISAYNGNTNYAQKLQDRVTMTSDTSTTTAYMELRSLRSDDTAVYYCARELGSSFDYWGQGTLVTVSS VL: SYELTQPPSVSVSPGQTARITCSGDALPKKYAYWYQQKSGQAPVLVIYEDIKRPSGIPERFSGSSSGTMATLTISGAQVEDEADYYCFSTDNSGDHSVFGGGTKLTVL
84

Query: Any idea what its % inhibition 1 µg/ml, N = 2 (HUVEC proliferation on coated DLL4) is? The binder is 2H10 (antibody, IgG4, V domains shown, Fully human; used for IgG4 rows and where no isotype is printed; also called 2H10 IgG4) VH: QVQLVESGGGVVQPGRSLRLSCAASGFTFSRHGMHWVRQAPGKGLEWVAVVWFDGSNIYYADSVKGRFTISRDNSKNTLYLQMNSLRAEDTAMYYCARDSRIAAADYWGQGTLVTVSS VL: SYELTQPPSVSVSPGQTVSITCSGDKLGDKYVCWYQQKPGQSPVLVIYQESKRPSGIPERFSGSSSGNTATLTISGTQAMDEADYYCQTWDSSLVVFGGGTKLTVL
Reply: 87

Query: Item 1E4 (antibody, IgG2, V domains shown, Fully human; also used where no isotype is printed) VH: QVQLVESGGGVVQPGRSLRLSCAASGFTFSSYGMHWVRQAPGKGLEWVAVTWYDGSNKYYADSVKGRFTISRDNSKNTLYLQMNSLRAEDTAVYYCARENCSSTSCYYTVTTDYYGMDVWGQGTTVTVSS VL: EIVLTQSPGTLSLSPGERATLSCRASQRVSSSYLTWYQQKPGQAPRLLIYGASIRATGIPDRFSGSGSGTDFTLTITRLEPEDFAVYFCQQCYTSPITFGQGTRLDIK has what recorded % inhibition 1 µg/ml, N = 2 (HUVEC proliferation on coated DLL4)?
Reply: 75

Query: Any idea what % inhibition 1 µg/ml, N = 2 (HUVEC proliferation on coated DLL4) was measured for 4B3 (antibody, IgG4, V domains shown, Fully human; also used where no isotype is printed) VH: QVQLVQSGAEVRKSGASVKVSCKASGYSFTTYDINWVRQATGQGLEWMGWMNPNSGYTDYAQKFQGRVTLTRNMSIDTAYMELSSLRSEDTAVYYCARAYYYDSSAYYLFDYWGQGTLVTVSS VL: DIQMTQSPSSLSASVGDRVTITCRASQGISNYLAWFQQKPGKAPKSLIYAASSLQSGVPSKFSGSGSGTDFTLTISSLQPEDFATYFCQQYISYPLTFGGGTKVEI ?
Reply: 41

Query: Please look up its % inhibition 1 µg/ml, N = 2 (HUVEC proliferation on coated DLL4): 12A1 (antibody, IgG4, V domains shown, Fully human; also used where no isotype is printed) VH: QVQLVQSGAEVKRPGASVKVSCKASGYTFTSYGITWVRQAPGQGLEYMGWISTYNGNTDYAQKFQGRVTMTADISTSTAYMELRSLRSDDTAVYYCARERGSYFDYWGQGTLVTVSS VL: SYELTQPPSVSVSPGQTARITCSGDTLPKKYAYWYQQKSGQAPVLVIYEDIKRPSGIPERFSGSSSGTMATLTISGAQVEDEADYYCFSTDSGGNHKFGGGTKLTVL
Reply: 62
